Assay details: Half life in OVX-induced C57/BL6 mouse model at 3 mg/kg, iv
Type: ADME, organism-based
Assay setup: female, in vivo
Readout label: half-life
Write down the value, and be sure its unit follows.

{"columns": ["Compound", "Readout label", "Value measured"],
 "data": [
  ["Cc1cccc(C)c1NC(=O)C(Cc1c[nH]c2ccccc12)NCCCc1ccccc1 (configuration not stated)", "half-life", "1.2 h"]
]}

Alright, here's another compound for you.
Exam item: Give the measured half-life of Cc1cccc(C)c1NC(=O)c1cc2c([nH]c3ccccc32)c(CCc2ccccc2)n1 .
Marked response: 5.1 h

----------
Assay details: Anti-osteoporosis activity C57/BL6 mouse bone marrow macrophage cells assessed as inhibition of RANKL-induced osteoclastogenesis at 1 uM measured after 5 to 6 days in presence of M-CSF and RNKL by TRAP staining microscopic analysis
Assay type: functional, BMDM
Parameters: scale not given: the % may be the effect or the level left
Assay setup: time 5-6 day
This listing pairs compounds with measured Activity.
Report the figure in % without appending any unit label.

Use these answered entries as a reference point.
{"columns": ["Item smiles", "Readout label", "Unit symbol", "Value measured"],
 "data": [
  ["Cc1cccc(C)c1NC(=O)c1cc2c([nH]c3ccccc32)c(CCc2ccc(C(F)(F)F)cc2)n1", "Activity", "%", 72.5],
  ["O=C(Nc1cccnc1)c1cc2c([nH]c3ccccc32)c(CCc2ccccc2)n1", "Activity", "%", 18.3],
  ["Cc1cccc(C)c1NC(=O)c1cc2c([nH]c3ccccc32)c(CCc2cccc(F)c2)n1", "Activity", "%", 54.7],
  ["O=C(Nc1nccs1)c1cc2c([nH]c3ccccc32)c(CCc2ccccc2)n1", "Activity", "%", 27],
  ["O=C(NC1CCOCC1)c1cc2c([nH]c3ccccc32)c(CCc2ccccc2)n1", "Activity", "%", 47.9]
]}

Exam item: I have this compound here, COc1cccc(CCc2nc(C(=O)Nc3c(C)cccc3C)cc3c2[nH]c2ccccc23)c1 , and I need its recorded Activity.
Marked response: 82.3

Exam item: Recorded Activity of O=C(Nc1ccncc1)c1cc2c([nH]c3ccccc32)c(CCc2ccccc2)n1 , please.
Marked response: 56.6
